- system-tested: T. gondii ME49Luc in IFN-y HeLa, luciferase, 72 h
- protocol: T. gondii growth inhibition with IFN-gamma, dose response, cell-based, ME49Luc, HeLa, luciferase, 72 h (AID 1259418)
Records with an inconclusive call do not appear. The source made the active and inactive calls.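 How the source made its calls: active means fitted half-maximal concentration of signal decrease at or below twice the sample's top tested concentration; inconclusive means flat curve between -70 and -30 percent, or poor fit; inactive means flat within 30 percent, signal rise, or potency above limit.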
Classes used: yes = active, no = inactive

> print(dat)
                                smiles.repr  assigned.class
1  Cc1ccc(-c2nc3c(s2)CN(C(=O)Nc2ccc(C)cc2C)CC3)cc1             yes
2  COc1ccccc1C#Cc1ccc([C@H]2[C@@H](CO)N3CCCCN(C(=O)C4CCC4)C[C@@H]23)cc1             yes
3  Cc1ccc(S(=O)(=O)N2CCC3(CC2)NCCN=C3NCc2ccc(Cl)cc2)cc1C             yes
4  Cc1cccc(S(=O)(=O)N2CCc3nc(-c4cnn(C)c4)nc(NC4CC4)c3C2)c1             yes
5  COc1cccc(N(Cc2nc(-c3cccc(C)c3)oc2C)S(=O)(=O)c2ccccc2)c1             yes
6  Cc1ccccc1-c1nc(CN2CCN(C(=O)NC3CCCC3)CC2)c(C)o1              no
7  N#Cc1ccc(-c2ccc([C@@H]3[C@@H](CO)N4C(=O)CNC[C@H]34)cc2)cc1             yes

---

- system-tested: T. gondii ME49Luc in IFN-y HeLa, luciferase, 72 h
- protocol: T. gondii growth inhibition with IFN-gamma, dose response, cell-based, ME49Luc, HeLa, luciferase, 72 h (AID 1259418)
Results filed as inconclusive are left out. Calls of active or inactive are those of the source.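 The calls were made as follows: active = fitted half-maximal concentration of signal decrease at or below twice the sample's top tested concentration; inconclusive = flat curve between -70 and -30 percent, or poor fit; inactive = flat within 30 percent, signal rise, or potency above limit.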
Classes used: yes for active, no for inactive

> print(dat)
                                    compound                             system.tested  assigned.class
 1  CCC(=O)N1CC[C@@H]2[C@H]1c1cc(C#Cc3ccccc3F)ccc1N[C@@H]2CO  T. gondii ME49Luc in IFN-y HeLa, luciferase, 72 h             yes
 2  O=S(=O)(c1ccc2c(c1)CCCC2)N1CCC2(CC1)NCCN=C2NCc1cccc(F)c1  T. gondii ME49Luc in IFN-y HeLa, luciferase, 72 h             yes
 3  COc1ccc(-c2nc(C)c(-c3ccc(SCc4cc(C)ccc4C)nn3)s2)cc1  T. gondii ME49Luc in IFN-y HeLa, luciferase, 72 h              no
 4  O=S(=O)(c1ccccc1)N1CCCCN2[C@H](CO)[C@@H](c3ccc(C#CC4CCCC4)cc3)[C@@H]2C1  T. gondii ME49Luc in IFN-y HeLa, luciferase, 72 h             yes
 5  CCc1ccc(S(=O)(=O)N2CCC3(CC2)NCCN=C3NCc2ccc(C)cc2)cc1  T. gondii ME49Luc in IFN-y HeLa, luciferase, 72 h             yes
 6  COc1cc(NC(=O)Nc2ccc(-c3nc(-c4cc(C)ccc4C)co3)cc2)cc(OC)c1  T. gondii ME49Luc in IFN-y HeLa, luciferase, 72 h             yes
 7    Cc1nc2ccccn2c1CN(C)Cc1cnn(-c2ccccc2)c1  T. gondii ME49Luc in IFN-y HeLa, luciferase, 72 h              no
 8  O=C(C1CCCCC1)N1CCC2(CC1)Nc1ccc(Cl)cc1-n1cccc12  T. gondii ME49Luc in IFN-y HeLa, luciferase, 72 h             yes
 9  Cc1csc(-c2cc(S(=O)(=O)NCCCN3CCC(C)CC3)c(C)s2)n1  T. gondii ME49Luc in IFN-y HeLa, luciferase, 72 h              no
10  O=S(=O)(c1ccc2c(c1)CCCC2)N1CCC2(CC1)NCCN=C2NCc1ccc(F)cc1  T. gondii ME49Luc in IFN-y HeLa, luciferase, 72 h             yes
11  Cc1nc(-c2cccc(-c3noc(C(=O)NCCCN4CCC(C)CC4)n3)c2)cs1  T. gondii ME49Luc in IFN-y HeLa, luciferase, 72 h              no
12  O=C(NCCc1csc(-c2ccccc2)n1)[C@H]1CCCN1S(=O)(=O)c1ccc(Cl)s1  T. gondii ME49Luc in IFN-y HeLa, luciferase, 72 h             yes
13  CCN(CCCNC(=O)CC1Nc2c3ccccc3nc(=S)n2C1=O)c1ccccc1 (stereo not drawn)  T. gondii ME49Luc in IFN-y HeLa, luciferase, 72 h              no

---

- system-tested: T. gondii ME49Luc in IFN-y HeLa, luciferase, 72 h
- protocol: T. gondii growth inhibition with IFN-gamma, dose response, cell-based, ME49Luc, HeLa, luciferase, 72 h (AID 1259418)
Records with an inconclusive call do not appear. Activity calls are given as the source filed them.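 Rule for the calls: active = fitted half-maximal concentration of signal decrease at or below twice the sample's top tested concentration; inconclusive = flat curve between -70 and -30 percent, or poor fit; inactive = flat within 30 percent, signal rise, or potency above limit.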
Classes used: true for active, false for inactive

> print(dat)
                                   compound  assigned.class
1  COc1ccccc1CNC(=O)CCC1N=C2c3ccccc3N=C(SCc3cccc(F)c3)N2C1=O (stereo not drawn)           false
2  CCCCNC(=O)CCC1N=C2c3ccccc3N=C(SCc3cccc(Cl)c3)N2C1=O (stereo not drawn)            true
3  CCOc1ccccc1-c1nc(CN(c2ccccc2OC)S(=O)(=O)c2ccccc2C)c(C)o1            true

---

- system-tested: T. gondii ME49Luc in IFN-y HeLa, luciferase, 72 h
- protocol: T. gondii growth inhibition with IFN-gamma, dose response, cell-based, ME49Luc, HeLa, luciferase, 72 h (AID 1259418)
Records with an inconclusive call do not appear. The source made the active and inactive calls.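 Rule for the calls: active = fitted half-maximal concentration of signal decrease at or below twice the sample's top tested concentration; inconclusive = flat curve between -70 and -30 percent, or poor fit; inactive = flat within 30 percent, signal rise, or potency above limit.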
Classes used: active, inactive

> print(dat)
                                    compound  assigned.class
 1  CCOc1ccccc1-c1nc(CN(c2ccc(C)cc2)S(=O)(=O)c2cccs2)c(C)o1          active
 2        Cc1nnsc1CN(C)Cc1[nH]c2ccc(F)cc2c1C        inactive
 3  Cc1ccc(CSC2=Nc3ccccc3C3=NC(CCC(=O)NCc4cccs4)C(=O)N23)cc1 (stereo unspecified)          active
 4  COc1ccc2c(c1)NC1(CCN(C(=O)CCc3cc(OC)c(OC)c(OC)c3)CC1)c1cccn1-2        inactive
 5  CCCCNC(=O)CCC1N=C2c3ccccc3N=C(SCc3ccc(F)cc3)N2C1=O (stereo unspecified)          active
 6  O=S1(=O)c2ccccc2OCC2(CCN(Cc3ccc(F)cc3)CC2)CN1CC1CC1          active
 7    CCc1nc(OCC(=O)Nc2cccc(Br)c2)c2ccccc2n1        inactive
 8               COc1ccc(Cc2cnc(N)nc2N)cc1OC          active
 9  COc1ccc(CNC2=NCCNC23CCN(S(=O)(=O)c2ccc(Cl)s2)CC3)cc1          active
10  CCOc1ccc(N(Cc2nc(-c3ccc(C)cc3)oc2C)S(=O)(=O)c2ccccc2)cc1        inactive
11  O=C(c1ccco1)N1CCC2(CC1)Nc1ccc(Cl)cc1-n1cccc12          active

---

- system-tested: T. gondii ME49Luc in IFN-y HeLa, luciferase, 72 h
- protocol: T. gondii growth inhibition with IFN-gamma, dose response, cell-based, ME49Luc, HeLa, luciferase, 72 h (AID 1259418)
Results filed as inconclusive are left out. The source made the active and inactive calls.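 The calls were made as follows: active = fitted half-maximal concentration of signal decrease at or below twice the sample's top tested concentration; inconclusive = flat curve between -70 and -30 percent, or poor fit; inactive = flat within 30 percent, signal rise, or potency above limit.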
Classes used: True = active, False = inactive

> print(dat)
                                    molecule  assigned.class
 1  COc1ccc(-c2nc(NCCCN3CCN(c4ccccc4)CC3)c3ccccc3n2)cc1            True
 2  COc1ccc(-c2nc(CN(c3ccccc3)S(=O)(=O)c3ccccc3)c(C)o2)cc1            True
 3  O=C1CCc2cc(S(=O)(=O)NC(c3ccccc3)c3ccccc3)cc3c2N1CCC3            True
 4  Cc1cc(C2CCCN2C(=O)Cn2nc(C(F)(F)F)c3c2CCCC3)no1 (stereo not given)            True
 5  O=C(CCC1N=C2c3ccccc3N=C(SCc3ccc(F)cc3)N2C1=O)NCc1ccc(F)cc1 (stereo not given)           False
 6  Cc1ccc(S(=O)(=O)N2CCC3(CC2)NCCN=C3NCc2ccc(F)c(Cl)c2)c(C)c1            True
 7  COc1cccc(CN2CCC3(COCc4cnc(-c5ccccc5)nc43)C2)c1 (stereo not given)            True
 8  CCOc1ccccc1-c1nc(CN(c2ccccc2OC)S(=O)(=O)c2ccccc2)c(C)o1            True
 9  COc1ccccc1N(Cc1nc(-c2ccc(C)cc2)oc1C)S(=O)(=O)c1ccccc1C            True
10  Cc1cnn(C(C)C(=O)N2CCc3[nH]nc(-c4ccc(F)c(F)c4)c3C2)c1 (stereo not given)           False
11  CCOc1ccccc1N(Cc1nc(-c2ccccc2)oc1C)S(=O)(=O)c1cccs1            True
12  Cc1ccc(-c2nc(CN3CCN(C(=O)Nc4ccc(C)c(Cl)c4)CC3)c(C)o2)cc1           False
13  N#Cc1cccc(-c2ccc3c(c2)[C@@H]2[C@@H](CCN2S(=O)(=O)c2ccc(F)cc2)[C@H](CO)N3)c1            True
14  Cc1ccc(CNC2=NCCNC23CCN(S(=O)(=O)c2cc(C)cc(C)c2)CC3)cc1            True
15  CC(C)CC(=O)N1CCC2(CC1)Nc1cc(F)ccc1-n1cccc12           False
16  CCOc1ccccc1-c1nc(CN(c2ccc(OC)cc2)S(=O)(=O)c2ccc(C)cc2)c(C)o1            True
17  COc1ccc(-c2nc(NCCCN3CCCC3)c3ccccc3n2)cc1            True
18  Cn1cc(-c2cnc(Nc3ccccc3)nc2)cc1C(=O)Nc1cccc(O)c1            True
19  COc1ccc(OC)c(S(=O)(=O)N2CCc3c([nH]c4ccccc34)C2c2cc(F)ccc2F)c1 (stereo not given)           False
20  CN1C(=O)c2cc(NC(=O)c3cccc(F)c3)ccc2OC[C@H]2O[C@@H](CC(=O)NCC3CCCCC3)CC[C@@H]21            True
21  Fc1ccccc1CSc1nc(Nc2ccc3c(c2)OCO3)c2ccccc2n1            True
22  CCOC(=O)CSC1=Nc2ccccc2C2=NC(CCC(=O)NCc3ccc(OC)cc3)C(=O)N12 (stereo not given)            True
23  O=C(c1cccc(F)c1)N1CC(=O)N2[C@H](CO)[C@H](c3ccc(/C=C/c4ccccc4)cc3)[C@@H]2C1            True
24  O=C(Nc1ccc(F)cc1)N1CC(=O)N2[C@H](C1)[C@H](c1ccc(-c3cccc(F)c3)cc1)[C@@H]2CO            True
25          CC(=O)NCc1nnn2c1CN(c1ncccn1)CCC2            True

Origin of values: PubChem BioAssay AID1259418
